Catalogue of inhibition at 100 µM readings, one per entry.
biological target: IN–GCN2 interaction (UniProt P04585+Q9P2K8); construct: expressed as a truncated version (192-1024) in fusion after a glutathione S-transferase tag; Recombinant full-length IN was expressed in E. coli BL21 pLys; purchased SignalChem (GCN2); IN made in house in E. coli BL21 pLys E12-11G; host or cells: E. coli BL21 pLys (IN); assay: IN–GCN2 interaction assay (AlphaLISA); assay type: binding, HIV-1 IN / human GCN2; conditions: pilot screen, single dose of 100 µM; read-out: inhibition of the IN–GCN2 interaction signal
Sequence (Q9P2K8 192-1024, other chains not shown): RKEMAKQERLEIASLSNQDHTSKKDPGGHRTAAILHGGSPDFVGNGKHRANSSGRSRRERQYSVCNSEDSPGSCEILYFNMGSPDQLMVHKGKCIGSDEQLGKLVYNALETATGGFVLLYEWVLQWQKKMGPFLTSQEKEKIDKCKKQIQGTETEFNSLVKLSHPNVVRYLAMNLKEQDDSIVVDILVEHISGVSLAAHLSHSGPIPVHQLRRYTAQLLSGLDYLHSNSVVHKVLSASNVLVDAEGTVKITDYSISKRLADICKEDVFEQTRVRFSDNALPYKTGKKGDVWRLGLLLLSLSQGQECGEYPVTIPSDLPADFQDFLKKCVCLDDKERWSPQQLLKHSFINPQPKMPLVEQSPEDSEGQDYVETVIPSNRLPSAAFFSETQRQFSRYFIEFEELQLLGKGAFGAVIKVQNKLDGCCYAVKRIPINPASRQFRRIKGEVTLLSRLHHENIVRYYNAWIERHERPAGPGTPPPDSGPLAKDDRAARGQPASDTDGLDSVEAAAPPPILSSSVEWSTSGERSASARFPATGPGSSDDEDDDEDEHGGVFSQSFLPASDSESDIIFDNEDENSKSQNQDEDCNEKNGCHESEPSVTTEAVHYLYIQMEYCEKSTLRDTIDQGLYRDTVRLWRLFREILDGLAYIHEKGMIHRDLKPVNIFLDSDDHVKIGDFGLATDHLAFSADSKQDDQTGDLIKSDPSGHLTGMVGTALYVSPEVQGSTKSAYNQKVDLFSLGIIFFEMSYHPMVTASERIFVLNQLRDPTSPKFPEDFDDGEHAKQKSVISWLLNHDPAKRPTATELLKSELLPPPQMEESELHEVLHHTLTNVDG
measured-parameter: inhibition at 100 µM (%)

INSERT INTO results (entry_smiles, assay_system, measured_parameter, recorded_number) VALUES
  ('O=C1c2c(O)ccc(O)c2C(=O)c2c(NCCNCCO)ccc(NCCNCCO)c21', 'IN–GCN2 interaction (UniProt P04585+Q9P2K8)', 'inhibition at 100 µM', 99.4),
  ('CC1(C)CCC(CN2CCN(c3ccc(C(=O)NS(=O)(=O)c4ccc(NCC5CCOCC5)c([N+](=O)[O-])c4)c(Oc4cnc5[nH]ccc5c4)c3)CC2)=C(c2ccc(Cl)cc2)C1', 'IN–GCN2 interaction (UniProt P04585+Q9P2K8)', 'inhibition at 100 µM', 93.6),
  ('CC1=C(/C=C/C(C)=C/C=C/C(C)=C/C(=O)O)C(C)(C)CCC1', 'IN–GCN2 interaction (UniProt P04585+Q9P2K8)', 'inhibition at 100 µM', 87.3),
  ('C=CC(=O)Nc1cc(Nc2nccc(-c3cn(C)c4ccccc34)n2)c(OC)cc1N(C)CCN(C)C', 'IN–GCN2 interaction (UniProt P04585+Q9P2K8)', 'inhibition at 100 µM', 83.5);

====

biological target: IN's phosphorylation catalyzed by GCN2 (Homo sapiens, UniProt Q9P2K8); construct: expressed as a truncated version (192-1024) in fusion after a glutathione S-transferase tag; purchased SignalChem (GCN2); IN made in house in E. coli BL21 pLys E12-11G; host or cells: E. coli BL21 pLys (IN); experiment: In vitro phosphorylation assay: phosphorylation of IN catalyzed by GCN2; assay type: biochemical, human GCN2 / HIV-1 IN; details: single dose of 100 µM, compared to DMSO; read-out: decrease (inhibition) in IN phosphorylation
Sequence (Q9P2K8 192-1024): as the sequence (Q9P2K8 192-1024, other chains not shown) above
Catalogue of inhibition at 100 µM readings, one per entry.
measured-parameter: inhibition at 100 µM

INSERT INTO results (compound, result) VALUES
  ('Clc1ccc(C(c2ccccc2Cl)C(Cl)Cl)cc1 (stereo not shown)', '~30%'),
  ('Cc1cn(-c2cc(NC(=O)c3ccc(C)c(Nc4nccc(-c5cccnc5)n4)c3)cc(C(F)(F)F)c2)cn1', '40%'),
  ('C=CC(=O)Nc1cc(Nc2nccc(-c3cn(C)c4ccccc34)n2)c(OC)cc1N(C)CCN(C)C', '~20%'),
  ('O=C1c2c(O)ccc(O)c2C(=O)c2c(NCCNCCO)ccc(NCCNCCO)c21', '~65%');
